Test system: SNB-75 CNS
Experiment: NCI tumour cell line growth inhibition, 48 h
Assay endpoint: TGI

molecule=Cc1nn(C)c(=S)n(C)c1=O recorded_measurement="2.73 µM"
molecule="NC(=S)N/N=C(\\C(=O)Nc1ccc(Cl)c(Cl)c1)C1=NN(c2ccccc2)C(c2cccc([N+](=O)[O-])c2)CC1=O (centres undefined)" recorded_measurement="99.7 µM"
molecule="O=C1CCC2CCOc3ccc(O)c1c32 (centres undefined)" recorded_measurement="> 100 µM"
molecule=N#CC(=S)Nc1ccc(F)cc1 recorded_measurement="> 100 µM"
molecule=O=C1CCC(=O)C12CCc1cccc(O)c12 recorded_measurement="> 100 µM"
molecule="C=C1[C@H](OCC(C)C)[C@@H](OC(=O)C(C)CC)[C@@H](O)C(C)(C)/C=C/[C@H](C)C(=O)[C@@]2(O)C[C@H](C)[C@H](O)[C@@H]2[C@H]1OC(=O)C(C)CC (some centres undefined)" recorded_measurement="> 18.7 µM"
molecule=COc1cccc(/C=N/n2c(Cc3ccc(Cl)cc3)n[nH]c2=O)c1 recorded_measurement="25.3 µM"
molecule=O=C1NC(=S)NC(=O)C1=Cc1ccc2ccccc2n1 recorded_measurement="> 100 µM"
molecule=Cc1ccc(C2(c3ccc(C)c(O)c3C)CCN(C)CC2)c(C)c1O recorded_measurement="> 100 µM"
molecule="COc1cccc2c1C(=O)c1c(O)c3c(c(O)c1C2=O)C[C@@](O)(/C(C)=N\\O)C[C@@H]3OC1CC(N)C(O)C(C)O1 (some centres undefined)" recorded_measurement="2.54 µM"
molecule=c1ccc2c(c1)ccc1c3ccccc3ccc21 recorded_measurement="> 50 µM"
molecule=COc1cc(C(CC(OC)OC)=C(C#N)C#N)cc(OC)c1OC recorded_measurement="82.2 µM"
molecule=Cc1oc2c(C)c3oc(=O)cc(C)c3cc2c1CN recorded_measurement="> 100 µM"
molecule=C=C1C(=O)O[C@H]2[C@H]1CC(=O)/C(C)=C\CC[C@@]1(C)O[C@@H]21 recorded_measurement="9.57 µg/mL"
molecule="CN1N(c2ccccc2)C(=O)C2=NC=C(C#N)C(=N)C21C (centres undefined)" recorded_measurement="> 100 µM"
molecule="CC(=O)OC1C(O)C(C)OC(OC(=O)C2CCC3C(C2)OC2(CC(OC(=O)/C=C/c4ccccc4)C(C)CO2)C32CO2)C1OC1OC(C)C(O)C(O)C1O (centres undefined)" recorded_measurement="0.135 µM"
molecule="CCCC1C(C#N)(C#N)C(C#N)=C(N)C1(C)C(C)=O (centres undefined)" recorded_measurement="96.9 µM"
molecule=COc1c(Cl)c(Cl)c(OC)c2c1C(=O)C=CC2=O recorded_measurement="80 µM"
molecule=COc1ccc2sc3c(NCCCNCCO)nc4ccccc4c3c(=O)c2c1 recorded_measurement="3.34 µM"
molecule=Cc1nn(C)c(=O)c2nn(-c3ccccc3)c(C)c12 recorded_measurement="> 100 µM"
molecule=O=c1c(S(=O)(=O)Oc2ccccc2)coc2cc(F)ccc12 recorded_measurement="> 100 µM"
molecule="CCOC(=O)CCC(NC(=O)c1ccc(NCc2ccc3nc(-c4ccccc4)c(Cl)nc3c2)c2ccccc12)C(=O)OCC (centres undefined)" recorded_measurement="> 100 µM"
molecule="CSc1nc(=O)c(C#N)c(-c2ccccc2)n1C1OC(COC(C)=O)C(OC(C)=O)C(OC(C)=O)C1OC(C)=O (centres undefined)" recorded_measurement="> 100 µM"
molecule="OC1(c2ccc(Cl)cc2)c2ccccc2C2=NCc3ccccc3CN21 (centres undefined)" recorded_measurement="19.4 µM"
molecule="COC(=O)C(=O)C(C#N)c1ccc(Cl)c(Cl)c1 (centres undefined)" recorded_measurement="> 100 µM"
molecule=CCN1CCCCC(=N\O)/C(=N/O)CCCC1 recorded_measurement="> 100 µM"
molecule="CC(C)(C)OC(=O)NCCNC(=O)CN(CC(=O)O)C1CCCCC1N(CC(=O)O)CC(=O)O (centres undefined)" recorded_measurement="> 100 µM"
molecule=O=C1C(=O)c2c(nc3ncccn23)-c2ccccc21 recorded_measurement="0.793 µM"
molecule="NC(CNc1ccc(O)cc1)C(=O)O (centres undefined)" recorded_measurement="> 100 µM"
molecule="COC(=O)C(N)CCCC(N)C(=O)NC(C)C(=O)NC(CCC(=O)NCCCNc1ccc([N+](=O)[O-])c2[nH]c3ccccc3c(=O)c12)C(N)=O (centres undefined)" recorded_measurement="21.6 µM"
molecule="CN1c2ccccc2C(C)(C)C12CC(c1ccc(Cl)c(S(=O)(=O)N3CCCC3)c1)=NO2 (centres undefined)" recorded_measurement="> 100 µM"
molecule="COc1cc(C2c3cc4c(cc3OC(N3CCOCC3)C2C)OCO4)cc(OC)c1OC(C)=O (centres undefined)" recorded_measurement="25.2 µM"
molecule="COC1=CCC2=C(CCN(C(=O)C3CCC3)C2Cc2ccc(OC)c(O)c2)C1 (centres undefined)" recorded_measurement="35.9 µM"
molecule=O=C(/C=C/c1ccc(Cl)cc1)c1ccncc1 recorded_measurement="83.6 µM"

* * *

Tested on: SK-OV-3 ovarian
Assay: NCI tumour cell line growth inhibition, 48 h; in the data active = GI50 below about 0.43 µM; inactive = the rest
Labels: TRUE = active, FALSE = inactive

compound="COc1cccc(C2C(C#N)=C(N)Oc3cc(OC)ccc32)c1 (configuration not stated)" test_target="SK-OV-3 ovarian" assigned_label=TRUE
compound=COC(=O)c1cc2c(cc1Cl)SC(N(N(C)C)S(=O)(=O)c1ccc(Cl)cc1)=NS2(=O)=O test_target="SK-OV-3 ovarian" assigned_label=FALSE
compound=CC(C)(C)n1cc(-c2ccnc(NCCNS(=O)(=O)c3cccc4ccccc34)c2)c(-c2cccc(F)c2)n1 test_target="SK-OV-3 ovarian" assigned_label=FALSE
compound="CC(=O)OC1=C2C(CC3C4CC=C5CC(OC(C)=O)CCC5(C)C4CCC23C)C2C(=O)N(Cc3ccccc3)C(=O)C2C1 (configuration not stated)" test_target="SK-OV-3 ovarian" assigned_label=FALSE
compound="Nc1nc(Nc2ccc3c(c2)CCC(N2CCCC2)CC3)nn1-c1cc2c(nn1)-c1ccccc1CCC2 (configuration not stated)" test_target="SK-OV-3 ovarian" assigned_label=FALSE
compound="CCC(C)CC(CC)NCCN1CCN(C(CC)CC(C)CC)C1=S (configuration not stated)" test_target="SK-OV-3 ovarian" assigned_label=FALSE
compound="C#CC#CC#CC#CC#CC#CC#CC#CCC1OC[C@H](COC(=O)O[C@@H](C(=O)O[C@H]2C[C@@]3(O)[C@@H](OC(=O)c4ccccc4)[C@@H]4[C@]5(OC(C)=O)CO[C@@H]5C[C@H](O)[C@@]4(C)C(=O)[C@H](OC(C)=O)C(=C2C)C3(C)C)[C@@H](NC(=O)c2ccccc2)c2ccccc2)O1 (some centres not stated)" test_target="SK-OV-3 ovarian" assigned_label=FALSE

* * *

System: SF-268 CNS
Assay: NCI tumour cell line growth inhibition, 48 h
Assay endpoint: TGI

compound=C/C(=N\NC(=O)N/N=C(\C)c1ccccn1)c1ccccn1 assay_endpoint=TGI recorded_measurement="> 83.9 µM"
compound="CC1CN=C(N(C)C(=O)Nc2ccc(Cl)c(Cl)c2)S1 (stereo unspecified)" assay_endpoint=TGI recorded_measurement="> 100 µM"
compound="C=CCNc1cccc2c1C(=O)c1ccccc1C2(O)CC=C (stereo unspecified)" assay_endpoint=TGI recorded_measurement="> 100 µM"
compound=CCOC(=O)O/N=C1/C(c2c(O)[nH]c3ccccc23)=Nc2ccccc21 assay_endpoint=TGI recorded_measurement="68.2 µM"
compound=CC1=C(c2cc(C(=O)Nc3cccc(C(F)(F)F)c3)nc(NC#N)n2)Sc2ccccc2N1 assay_endpoint=TGI recorded_measurement="> 100 µM"
compound=CC1=N/C(=C\c2cccc3ccccc23)C(=O)O1 assay_endpoint=TGI recorded_measurement="> 100 µM"
compound=CC(C)(C)C(=O)OCC(COC(=O)C(C)(C)C)[N+](=O)[O-] assay_endpoint=TGI recorded_measurement="> 100 µM"
compound=COC1=C(OC)C(=O)C(Cc2c(Cl)nc3n2CCS3)=C(C)C1=O assay_endpoint=TGI recorded_measurement="41.3 µM"
compound=Cc1nn(C)c(=O)c2nn(-c3ccccc3)c(C)c12 assay_endpoint=TGI recorded_measurement="> 100 µM"
compound=O=C(Nc1ccccc1F)c1ccc(NC2=C(Cl)C(=O)N(Cc3ccccc3)C2=O)cc1 assay_endpoint=TGI recorded_measurement="5.2 µM"
compound=Clc1ccc(-c2cn(-c3ccccc3)c(-c3ccccc3)n2)c(Cl)c1 assay_endpoint=TGI recorded_measurement="> 11 µM"

* * *

Listing of recorded TGI by entry.
Tested on: MCF7 breast
Assay: NCI tumour cell line growth inhibition, 48 h
Peptide text beside a SMILES is read from it. * marks the point of attachment. OSu = O=C1CCC(=O)N1O*; OBn = c1ccc(CO*)cc1; Bn = c1ccc(C*)cc1
Assay endpoint: TGI

molecule=CN(C)/C=N/S(=O)(=O)c1nn2c(C=O)c(-c3cc4ccccc4oc3=O)nc2s1 assay_endpoint=TGI recorded_measurement="> 36.6 µM"
molecule=COc1cc2c3c(n(C)c(=O)c2cc1OC)-c1cc2c(cc1/C3=C\[C@@H](N)CCCCN)OCO2 assay_endpoint=TGI recorded_measurement="> 49.3 µM"
molecule="CC(C)CC(NC(=O)C(N)CCC(=O)OCc1ccccc1)C(=O)NC(COCc1ccccc1)C(=O)NC(Cc1ccccc1)C(=O)ON1C(=O)CCC1=O (configuration not stated) (H-E(OBn)LS(Bn)F-OSu; configuration not given here)" assay_endpoint=TGI recorded_measurement="78.5 µM"
molecule=c1ccc(-c2nc3ccccc3n3nnnc23)cc1 assay_endpoint=TGI recorded_measurement="> 100 µM"
molecule="C=C1[C@H](OCC(C)C)[C@@H](OC(=O)C(C)CC)[C@@H](O)C(C)(C)/C=C/[C@H](C)C(=O)[C@@]2(O)C[C@H](C)[C@H](O)[C@@H]2[C@H]1OC(=O)C(C)CC (some centres not stated)" assay_endpoint=TGI recorded_measurement="> 16 µM"
molecule="O=C(NC(CO)CO)c1ccc2cc(C(=O)N3CC(CCl)c4ccc([N+](=O)[O-])cc43)[nH]c2c1 (configuration not stated)" assay_endpoint=TGI recorded_measurement="> 100 µM"
molecule=CC(C)(CCC(C)(C)c1ccccc1)c1ccccc1 assay_endpoint=TGI recorded_measurement="32.8 µM"
